# studySystem: T1, cell surface human mesothelin (MSLN) (human, UniProt Q13421 296-598)
# T1 construct: whole, on cells; also called cell surface MSLN
# T1 sequence (Q13421 other isoform, or with tags, fused parts or gaps limits assumed): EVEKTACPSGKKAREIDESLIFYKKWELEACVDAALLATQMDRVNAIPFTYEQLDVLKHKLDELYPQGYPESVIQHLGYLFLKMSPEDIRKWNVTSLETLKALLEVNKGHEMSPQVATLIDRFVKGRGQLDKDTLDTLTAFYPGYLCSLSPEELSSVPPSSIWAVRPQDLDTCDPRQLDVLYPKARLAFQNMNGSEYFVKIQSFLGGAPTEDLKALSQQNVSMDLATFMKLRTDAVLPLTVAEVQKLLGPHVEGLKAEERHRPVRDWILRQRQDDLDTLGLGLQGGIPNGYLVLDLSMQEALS
# assayProtocol: flow cytometry, NCI-H226 cells + 20 nM soluble MSLN
measurementName: pEC50
Lab note — pEC50 values are minus log10 of concentrations in M.

// worked examples, pEC50 included
binder | measurementName | measuredNumber
FS22-053-008-AA/FS28-256-021 mAb^2 (bispecific antibody, human IgG1, kappa, L234A L235A, V domains shown) VH: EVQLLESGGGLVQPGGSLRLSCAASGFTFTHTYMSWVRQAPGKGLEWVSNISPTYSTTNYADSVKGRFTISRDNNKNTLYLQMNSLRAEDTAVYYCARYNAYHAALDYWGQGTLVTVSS VL: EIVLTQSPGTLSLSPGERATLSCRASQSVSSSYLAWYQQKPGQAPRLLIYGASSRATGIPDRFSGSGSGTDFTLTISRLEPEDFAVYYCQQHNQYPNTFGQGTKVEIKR | pEC50 | 8.12
FS22-053-008-AA/FS28-256-012 mAb^2 (bispecific antibody, human IgG1, kappa, L234A L235A, V domains shown) VH: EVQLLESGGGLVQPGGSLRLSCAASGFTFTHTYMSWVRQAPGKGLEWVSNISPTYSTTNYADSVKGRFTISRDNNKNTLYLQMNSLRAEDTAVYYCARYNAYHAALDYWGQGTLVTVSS VL: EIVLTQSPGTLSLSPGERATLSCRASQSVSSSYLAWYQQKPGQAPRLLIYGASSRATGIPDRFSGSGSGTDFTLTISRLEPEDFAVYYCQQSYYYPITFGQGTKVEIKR | pEC50 | 8.32
FS22-053-008-AA/FS28-024-052 mAb^2 (bispecific antibody, human IgG1, kappa, L234A L235A, V domains shown, also called FS28-024-52) VH: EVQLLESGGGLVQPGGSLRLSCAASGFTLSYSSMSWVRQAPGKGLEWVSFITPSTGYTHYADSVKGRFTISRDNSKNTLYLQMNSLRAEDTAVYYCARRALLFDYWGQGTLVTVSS VL: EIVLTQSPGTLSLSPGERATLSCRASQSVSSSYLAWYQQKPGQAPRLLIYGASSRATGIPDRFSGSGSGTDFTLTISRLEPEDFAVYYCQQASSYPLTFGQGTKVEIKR | pEC50 | 8.37

QUERY: Would you mind telling me what pEC50 value was observed for FS22-053-008-AA/FS28-256-023 mAb^2 (bispecific antibody, human IgG1, kappa, L234A L235A, V domains shown) VH: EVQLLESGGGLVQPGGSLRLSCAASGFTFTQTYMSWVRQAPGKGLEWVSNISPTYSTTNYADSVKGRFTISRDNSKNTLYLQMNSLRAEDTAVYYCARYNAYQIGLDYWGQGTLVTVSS VL: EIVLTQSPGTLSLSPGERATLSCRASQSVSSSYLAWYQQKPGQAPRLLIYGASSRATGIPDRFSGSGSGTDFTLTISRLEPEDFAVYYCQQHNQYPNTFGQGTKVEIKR ?
RESULT: 8.41

QUERY: Would you mind telling me what pEC50 value was observed for FS22-053-008-AA/FS28-256-001 mAb^2 (bispecific antibody, human IgG1, kappa, L234A L235A, V domains shown) VH: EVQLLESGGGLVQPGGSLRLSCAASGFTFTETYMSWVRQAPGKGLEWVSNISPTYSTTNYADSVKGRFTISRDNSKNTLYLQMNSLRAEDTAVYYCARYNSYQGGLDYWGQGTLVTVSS VL: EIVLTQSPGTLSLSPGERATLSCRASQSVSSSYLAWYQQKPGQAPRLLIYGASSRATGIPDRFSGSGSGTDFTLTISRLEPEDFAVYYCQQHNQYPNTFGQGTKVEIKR ?
RESULT: 8.27
